Entry source: patent US20260250312A1

system: Escherichia coli (E. coli) persister cells; test: Anti-persister activity test, persister cells; format: cell-based; conditions: Escherichia coli, 4 h, read-out: Persister cell survival rate 96 h, concentration used 125 μM, 4 hours treatment
Measured viability at 125 µM values are reported for all entries that follow.
readout-type: viability at 125 µM (%)

COC(=O)[C@H](Cc1ccc(O)cc1)NC(=O)CC[C@@H](C)[C@H]1CCC2C3C(CC[C@@]21C)[C@@]1(C)CC[C@H](NCCCNCCNCCCN)C[C@H]1C[C@H]3O (some centres unmarked) [Compound S042] = 0.1
CC[C@H](C)[C@H](NC(=O)CC[C@@H](C)[C@H]1CC[C@H]2[C@@H]3[C@H](O)C[C@@H]4C[C@@H](NCCCNCCNCCCN)CC[C@]4(C)[C@H]3CC[C@]12C)C(=O)OC [Compound S041] = 0.1
COC(=O)[C@H]1CCCN1C(=O)CC[C@@H](C)[C@H]1CCC2C3C(CC[C@@]21C)[C@@]1(C)CC[C@H](NCCCNCCNCCCN)C[C@H]1C[C@H]3O (some centres unmarked) [Compound S046] = 0
COC(=O)[C@H](NC(=O)CC[C@@H](C)[C@H]1CCC2C3C(CC[C@@]21C)[C@@]1(C)CC[C@H](NCCCNCCCN)C[C@H]1C[C@H]3O)C(C)C (some centres unmarked) [Compound S047] = 0
COC(=O)[C@H](Cc1ccccc1)NC(=O)CC[C@@H](C)[C@H]1CCC2C3C(CC[C@@]21C)[C@@]1(C)CC[C@H](NCCCNCCCCNCCCN)C[C@H]1C[C@H]3O (some centres unmarked) [Compound S014] = 0
